system: PBMC-derived induced microglia-like cells (piMGLC); experiment: synaptosome phagocytic index relative to DMSO control (fraction of DMSO); higher = more phagocytosis; conditions: concentration: 10 uM (2 uM for compounds listed in Table S2); pretreatment time: 24 h; assay time: 3 h
Counter-ions that a name gives are not always drawn.
Decide by synaptosome phagocytic index: equal to or exceeding 1 means 1, less means 0.

compound	discrete-label
C=CC(N)CCC(=O)O (stereo not drawn)	0
Nc1nc2[nH]cc(CCc3ccc(C(=O)N[C@@H](CCC(=O)O)C(=O)O)cc3)c2c(=O)[nH]1 [Pemetrexed_(disodium_hemipenta_hydrate)]	1

In plain terms: is recorded synaptosome phagocytic index at least 1 for CCCc1nc(C)c2c(O)nc(-c3cc(S(=O)(=O)N4CCN(CC)CC4)ccc3OCC)nn12 [Vardenafil_(hydrochloride)] ?
1

In plain terms: is recorded synaptosome phagocytic index at least 1 for `COc1cc2ncnc(Nc3ccc(F)c(Cl)c3)c2cc1OCCCN1CCOCC1` ?
1

In plain terms: is recorded synaptosome phagocytic index at least 1 for `C[C@H]1[C@H](NC(=O)/C(=N\OC(C)(C)C(=O)O)c2csc(N)n2)C(=O)N1S(=O)(=O)O` ?
0

In plain terms: is recorded synaptosome phagocytic index at least 1 for Cc1nc2n(c(=O)c1CCN1CCC(c3noc4cc(F)ccc34)CC1)CCCC2O (stereo not drawn) ?
0

###

test system: PBMC-derived induced microglia-like cells (piMGLC); assay: synaptosome phagocytic index relative to DMSO control (fraction of DMSO); higher = more phagocytosis; settings: concentration: 10 uM (2 uM for compounds listed in Table S2); pretreatment time: 24 h; assay time: 3 h
Where a name gives a salt, the structure may show the parent alone.
synaptosome phagocytic index overview
Give the value as a plain number.

# count of solved cases: 4
compound	observed-value
COC1(c2sc3c(N4CCOCC4)nc(-c4cnc(N)nc4)nc3c2C)COC1	0.384
CC1=C(/C=C/C(C)=C/C=C/C(C)=C/C(=O)O)C(C)(C)CCC1	0.339
C[C@@H](c1ncncc1F)[C@](O)(Cn1cncn1)c1ccc(F)cc1F	0.893
CC(=O)NCCCS(=O)(=O)O	0.864

Enter reported synaptosome phagocytic index observed with PBMC-derived induced microglia-like cells (piMGLC) for Cc1nc2c([nH]1)-c1ccccc1N(C(=O)c1ccc(NC(=O)c3ccccc3-c3ccccc3)cc1)CC2 [Conivaptan_(hydrochloride)]
0.827

###

synaptosome phagocytic index overview
test system: PBMC-derived induced microglia-like cells (piMGLC); assay: synaptosome phagocytic index relative to DMSO control (fraction of DMSO); higher = more phagocytosis; conditions: concentration: 10 uM (2 uM for compounds listed in Table S2); pretreatment time: 24 h; assay time: 3 h
Where a name gives a salt, the structure may show the parent alone.
Give the value as a plain number.

compound	synaptosome phagocytic index
C[C@@H]1O[C@@H]1P(=O)(O)O [Fosfomycin_(calcium)]	0.946

synaptosome phagocytic index lookup needed for CNS(=O)(=O)Cc1ccc2[nH]cc(CCN(C)C)c2c1 [Sumatriptan_(succinate)] , thanks.
0.992

synaptosome phagocytic index lookup needed for Clc1ccc(COC(Cn2ccnc2)c2ccc(Cl)cc2Cl)c(Cl)c1 (configuration not stated) [Miconazole_(nitrate)] , thanks.
1.09

synaptosome phagocytic index lookup needed for `CCc1cc(Nc2nc(-c3ccc(-n4cnc(C)c4)c(F)c3)cs2)c(C)cc1C` , thanks.
0.666

synaptosome phagocytic index lookup needed for `C[C@]1(c2nc3c(C(N)=O)cccc3[nH]2)CCCN1` , thanks.
0.721

synaptosome phagocytic index lookup needed for C[N+]1([O-])CCN(C2=Nc3cc(Cl)ccc3Nc3ccccc32)CC1 [Clozapine_N-oxide_(dihydrochloride)] , thanks.
0.606
